Below, each entry is listed alongside its reported viability at 48 h.
assay.comment: Cytotoxicity (MTT / CellTiter-Glo cell viability) in Calu-3 cells
Format: cell-based, human
measurement.parameters: human, Calu-3 cells, at MNCC, 48 h exposure, normalized to untreated control; mean 2x
Where a name gives a salt, the structure may show the parent alone.

{"columns": ["compound", "viability at 48 h"],
 "data": [
  ["NC(=O)c1ncn([C@@H]2O[C@H](CO)[C@@H](O)[C@H]2O)n1 [Ribavirin (RIB), Ribavirin]", "91%"],
  ["CC[C@H]1OC(=O)[C@H](C)[C@@H](O[C@H]2C[C@@](C)(OC)[C@@H](O)[C@H](C)O2)[C@H](C)[C@@H](O[C@@H]2O[C@H](C)C[C@H](N(C)C)[C@H]2O)[C@](C)(O)C[C@@H](C)CN(C)[C@H](C)[C@@H](O)[C@]1(C)O [Azithromycin dehydrate (AZH), Azithromycin dehydrate]", "87%"],
  ["O=C(Nc1cccc(C2=NCCN2)c1)Nc1cccc(C2=NCCN2)c1", "106%"],
  ["CCN(CC)Cc1cc(Nc2ccnc3cc(Cl)ccc23)ccc1O", "82%"],
  ["COc1c(C)c2c(c(O)c1C/C=C(\\C)CCC(=O)O)C(=O)OC2", "109%"],
  ["OC(c1cc(C(F)(F)F)nc2c(C(F)(F)F)cccc12)C1CCCCN1 (stereo not drawn)", "82%"],
  ["CCN(CC)CCCC(C)Nc1ccnc2cc(Cl)ccc12 (stereo not drawn) [Chloroquine diphosphate (CQ), Chloroquine diphosphate]", "105%"],
  ["CN1CCN(CCCN2c3ccccc3Sc3ccc(Cl)cc32)CC1", "< 80%"],
  ["COc1cc(NC(C)CCCN)c2ncccc2c1 (stereo not drawn) [Primaquine Phosphate (PQ), Primaquine Phosphate]", "87%"],
  ["CN(C)C(=O)COC(=O)Cc1ccc(OC(=O)c2ccc(NC(=N)N)cc2)cc1 [Camostat mesylate (CAM), Camostat mesylate]", "112%"],
  ["C[C@H]1[C@H](OC(=O)CCC(=O)O)O[C@@H]2O[C@@]3(C)CC[C@H]4[C@H](C)CC[C@@H]1[C@@]24OO3", "< 80%"],
  ["CCc1nc(N)nc(N)c1-c1ccc(Cl)cc1", "92%"]
]}

----------
Tested on: Vero-E6 and Calu-3 cells
assay.comment: Maximum non-cytotoxic concentration (MNCC) determination
Type: cell-based
measurement.parameters: 48 h
Where a name gives a salt, the structure may show the parent alone.
Below: a set of entries, each annotated with reported MNCC Concentration.
property.measured: MNCC Concentration (µM)

{"columns": ["compound", "units.of.measure", "value"],
 "data": [
  ["CN(C)C(=O)COC(=O)Cc1ccc(OC(=O)c2ccc(NC(=N)N)cc2)cc1 [Camostat mesylate (CAM), Camostat mesylate]", "µM", 50],
  ["COc1cc(NC(C)CCCN)c2ncccc2c1 (stereo not drawn) [Primaquine Phosphate (PQ), Primaquine Phosphate]", "µM", 15],
  ["C[C@H]1[C@H](OC(=O)CCC(=O)O)O[C@@H]2O[C@@]3(C)CC[C@H]4[C@H](C)CC[C@@H]1[C@@]24OO3 [Artesunic acid (AS), Artesunic acid]", "µM", 125],
  ["CCc1nc(N)nc(N)c1-c1ccc(Cl)cc1 [Pyrimethamina (PYR), Pyrimethamina]", "µM", 125],
  ["CCCCN(CCCC)CC(O)c1cc(Cl)cc2c1-c1ccc(Cl)cc1/C2=C/c1ccc(Cl)cc1 (stereo not drawn) [Lumefantrine (LUM), Lumefantrine]", "µM", 250],
  ["C[C@H]1[C@H](N2CCS(=O)(=O)CC2)O[C@@H]2O[C@@]3(C)CC[C@H]4[C@H](C)CC[C@@H]1[C@@]24OO3 [Artemisone (ASO), Artemisone]", "µM", 125]
]}

----------
Tested on: Vero-E6 and Calu-3 cells
assay.comment: Maximum non-cytotoxic concentration (MNCC) determination
Assay type: cell-based
measurement.parameters: 48 h
# key: entry, value: MNCC Concentration

{"columns": ["compound", "MNCC Concentration [µM]"],
 "data": [
  ["COc1c(C)c2c(c(O)c1C/C=C(\\C)CCC(=O)O)C(=O)OC2", 5],
  ["OC(c1cc(C(F)(F)F)nc2c(C(F)(F)F)cccc12)C1CCCCN1 (stereo not shown)", 30],
  ["CN1CCN(CCCN2c3ccccc3Sc3ccc(Cl)cc32)CC1", 30],
  ["NC(=O)c1ncn([C@@H]2O[C@H](CO)[C@@H](O)[C@H]2O)n1 [Ribavirin (RIB), Ribavirin]", 250],
  ["C[C@H]1[C@@H](OCc2ccc(C(=O)O)cc2)O[C@@H]2O[C@@]3(C)CC[C@H]4[C@H](C)CC[C@@H]1[C@@]24OO3", 30],
  ["CCN(CC)Cc1cc(Nc2ccnc3cc(Cl)ccc23)ccc1O", 20],
  ["CN(C)c1ccc2nc3ccc(=[N+](C)C)cc-3sc2c1", 5]
]}

----------
System: Vero E6 cells
assay.comment: CC50 determination in Vero E6 cells
measurement.parameters: Vero E6
property.measured: CC50 (µM)

{"columns": ["compound", "tested.target", "property.measured", "value"],
 "data": [
  ["CC[C@H](C)[C@H]1O[C@]2(CC[C@@H]1C)C[C@@H]1C[C@@H](C/C=C(\\C)[C@@H](O[C@H]3C[C@H](OC)[C@@H](O[C@H]4C[C@H](OC)[C@@H](O)[C@H](C)O4)[C@H](C)O3)[C@@H](C)/C=C/C=C3\\CO[C@@H]4[C@H](O)C(C)=C[C@@H](C(=O)O1)[C@]34O)O2 [Ivermectin (IVM), Ivermectin]", "Vero E6 cells", "CC50", 74]
]}

----------
# CC50 at 72 h per record follows
assay.comment: CC50 determination in Vero E6 cells
measurement.parameters: African green monkey, CC50%, Vero E6
Structures can show the parent of a compound that is named as a salt.
property.measured: CC50 at 72 h (µM)

{"columns": ["compound", "value"],
 "data": [
  ["CCN(CCO)CCCC(C)Nc1ccnc2cc(Cl)ccc12 (stereo not shown) [Hydroxychloroquine sulfate (HCQ), Hydroxychloroquine sulfate]", 72.1],
  ["COc1cc(NC(C)CCCN)c2ncccc2c1 (stereo not shown) [Primaquine Phosphate (PQ), Primaquine Phosphate]", 21.2],
  ["C[C@H]1[C@H](OC(=O)CCC(=O)O)O[C@@H]2O[C@@]3(C)CC[C@H]4[C@H](C)CC[C@@H]1[C@@]24OO3 [Artesunate injection (ASi), Artesunate]", 70.3],
  ["CCN(CC)CCCC(C)Nc1ccnc2cc(Cl)ccc12 (stereo not shown) [Chloroquine diphosphate (CQ), Chloroquine diphosphate]", 53.2]
]}

----------
Tested on: Vero-E6 and Calu-3 cells
assay.comment: Maximum non-cytotoxic concentration (MNCC) determination
Assay type: cell-based
measurement.parameters: 48 h
property.measured: MNCC Concentration (µM)

{"columns": ["compound", "property.measured", "units.of.measure", "value"],
 "data": [
  ["CC[C@H](C)[C@H]1O[C@]2(CC[C@@H]1C)C[C@@H]1C[C@@H](C/C=C(\\C)[C@@H](O[C@H]3C[C@H](OC)[C@@H](O[C@H]4C[C@H](OC)[C@@H](O)[C@H](C)O4)[C@H](C)O3)[C@@H](C)/C=C/C=C3\\CO[C@@H]4[C@H](O)C(C)=C[C@@H](C(=O)O1)[C@]34O)O2 [Ivermectin (IVM), Ivermectin]", "MNCC Concentration", "µM", 8],
  ["COc1ccc2nc3cc(Cl)ccc3c(Nc3cc(CN4CCCC4)c(O)c(CN4CCCC4)c3)c2n1 [Pyranoridine (PNO), Pyranoridine]", "MNCC Concentration", "µM", 5],
  ["CC[C@H]1OC(=O)[C@H](C)[C@@H](O[C@H]2C[C@@](C)(OC)[C@@H](O)[C@H](C)O2)[C@H](C)[C@@H](O[C@@H]2O[C@H](C)C[C@H](N(C)C)[C@H]2O)[C@](C)(O)C[C@@H](C)CN(C)[C@H](C)[C@@H](O)[C@]1(C)O [Azithromycin dehydrate (AZH), Azithromycin dehydrate]", "MNCC Concentration", "µM", 30],
  ["CCN(CC)CCCC(C)Nc1ccnc2cc(Cl)ccc12 (stereo not shown) [Chloroquine diphosphate (CQ), Chloroquine diphosphate]", "MNCC Concentration", "µM", 5]
]}

----------
System: Vero-E6 cells
assay.comment: Cytotoxicity (MTT / CellTiter-Glo cell viability) in Vero-E6 cells
Type: cell-based, African green monkey
measurement.parameters: at MNCC, 48 h exposure, normalized to untreated control; mean 2x
Reported values of % viability Vero E6 for individual entries

{"columns": ["compound", "units.of.measure", "% viability Vero E6"],
 "data": [
  ["CC[C@H](C)[C@H]1O[C@]2(CC[C@@H]1C)C[C@@H]1C[C@@H](C/C=C(\\C)[C@@H](O[C@H]3C[C@H](OC)[C@@H](O[C@H]4C[C@H](OC)[C@@H](O)[C@H](C)O4)[C@H](C)O3)[C@@H](C)/C=C/C=C3\\CO[C@@H]4[C@H](O)C(C)=C[C@@H](C(=O)O1)[C@]34O)O2", "%", 93],
  ["CCN(CCO)CCCC(C)Nc1ccnc2cc(Cl)ccc12 (centres unmarked) [Hydroxychloroquine Minsa (HCQ-m), Hydroxychloroquine]", "%", 72]
]}
